Provide the reported IC50 of each item.
assay-target: UniProtKB C7C422
experiment-description: biochemical
Type: biochemical
measurement-setup: fluorescence assay with CCF2-FA substrate; read-out: NDM-1 IC50
Supply the numeric figure in nM, leaving out any unit text.

For record NS(=O)(=O)c1c(C(F)(F)F)ccc(-c2cccn3ncnc23)c1-c1nnn[nH]1 the listed IC50 is 2.49

For record Cc1cccn2c(-c3cccc(S(N)(=O)=O)c3-c3nnn[nH]3)cnc12 the listed IC50 is 0.637

For record NS(=O)(=O)c1c(C(F)(F)F)ccc(-c2ccc(C3CN(CC4CCNCC4)C3)cc2)c1-c1nnn[nH]1 the listed IC50 is 3.85

For record NS(=O)(=O)c1nccc(N2CCC(Cn3ccnc3)CC2)c1-c1nnn[nH]1 the listed IC50 is 60.9

----------
assay-target: NDM-1 (Klebsiella pneumoniae, UniProt C7C422)
Sequence (C7C422 whole entry, looked up, species assumed): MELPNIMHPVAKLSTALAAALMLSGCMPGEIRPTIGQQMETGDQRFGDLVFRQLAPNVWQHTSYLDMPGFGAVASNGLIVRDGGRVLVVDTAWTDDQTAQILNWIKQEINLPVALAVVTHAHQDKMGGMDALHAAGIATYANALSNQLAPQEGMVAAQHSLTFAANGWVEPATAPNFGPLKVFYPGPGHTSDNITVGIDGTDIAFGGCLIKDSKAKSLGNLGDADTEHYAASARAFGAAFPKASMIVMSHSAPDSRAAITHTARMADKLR
experiment-description: biochemical
Type: biochemical
measurement-setup: fluorescence assay with CCF2-FA substrate; read-out: NDM-1 IC50
Provide the reported IC50 of each item.
Supply the numeric figure in nM, leaving out any unit text.

Entry Cn1ncc2cc(-c3cccc(S(N)(=O)=O)c3-c3nn[nH]n3)ccc21 [Example 68] , tested on NDM-1 (Klebsiella pneumoniae, UniProt C7C422), has a reported IC50 of 1.99

Entry NS(=O)(=O)c1cccc(-c2ccc(C3CCNC3)cc2)c1-c1nnn[nH]1 (centres unmarked) [Example 180] , tested on NDM-1 (Klebsiella pneumoniae, UniProt C7C422), has a reported IC50 of 9.91

Entry NS(=O)(=O)c1nccc(-c2ccc(C3CCNCC3)cc2)c1-c1nnn[nH]1 [Example 197] , tested on NDM-1 (Klebsiella pneumoniae, UniProt C7C422), has a reported IC50 of 130

Entry NS(=O)(=O)c1nccc(NC2CCCCC2)c1-c1nnn[nH]1 [Example 234] , tested on NDM-1 (Klebsiella pneumoniae, UniProt C7C422), has a reported IC50 of 24.5

Entry NC1(CNC2CCC(c3ccc(C(F)(F)F)c(S(N)(=O)=O)c3-c3nnn[nH]3)CC2)CC1 (centres unmarked) [Example 830] , tested on NDM-1 (Klebsiella pneumoniae, UniProt C7C422), has a reported IC50 of 1.93

Entry NS(=O)(=O)c1nccc(-c2cccnc2)c1-c1nnn[nH]1 [Example 193] , tested on NDM-1 (Klebsiella pneumoniae, UniProt C7C422), has a reported IC50 of 374

Entry NC1(CN2CC(c3ccc(-c4ccc(C(F)(F)F)c(S(N)(=O)=O)c4-c4nnn[nH]4)cc3)C2)CC1 [Example 806] , tested on NDM-1 (Klebsiella pneumoniae, UniProt C7C422), has a reported IC50 of 4.68

Entry NS(=O)(=O)c1cccc(-c2cnn(Cc3ccccn3)c2)c1-c1nn[nH]n1 [Example 101] , tested on NDM-1 (Klebsiella pneumoniae, UniProt C7C422), has a reported IC50 of 40.9

----------
Provide the reported IC50 of each item.
assay-target: UniProt C7C422
experiment-description: biochemical
Type: biochemical
measurement-setup: NDM-1 enzyme, CCF2-FA substrate; read-out: NDM-1 IC50
Give the value; after it, write the unit.

For record NS(=O)(=O)c1c(C(F)(F)F)ccc(C2CCCCC2)c1-c1nnn[nH]1 the listed IC50 is 0.435 nM

For record N=C(N)NCc1ccc(-c2ccc(CC3CCNCC3)c(S(N)(=O)=O)c2-c2nn[nH]n2)cc1 the listed IC50 is 13.4 nM

For record Nc1ncc2c(-c3ccc(C(F)(F)F)c(S(N)(=O)=O)c3-c3nn[nH]n3)cccc2n1 the listed IC50 is 0.125 nM

For record NCCc1ccc(-c2ccc(C(F)(F)F)c(S(N)(=O)=O)c2-c2nnn[nH]2)cc1 the listed IC50 is 5.59 nM

For record NS(=O)(=O)c1c(C(F)(F)F)ccc(-c2ccc(N3CCNCC3)cc2)c1-c1nnn[nH]1 the listed IC50 is 1.64 nM

For record NC1CCCC(N[C@H]2CC[C@H](c3ccc(C(F)(F)F)c(S(N)(=O)=O)c3-c3nnn[nH]3)CC2)C1 (some centres unmarked) the listed IC50 is 25.2 nM

For record NS(=O)(=O)Cc1cccc(-c2ccc(C(F)(F)F)c(S(N)(=O)=O)c2-c2nnn[nH]2)c1 the listed IC50 is 4.95 nM

For record NCCC1CCC(N[C@H]2CC[C@H](c3ccc(C(F)(F)F)c(S(N)(=O)=O)c3-c3nnn[nH]3)CC2)CC1 (some centres unmarked) [Example 693] the listed IC50 is 36.9 nM

----------
Provide the reported IC50 of each item.
assay-target: NDM-1 (Klebsiella pneumoniae)
experiment-description: biochemical
Type: biochemical
measurement-setup: fluorescence assay with CCF2-FA substrate; read-out: NDM-1 IC50
Supply the numeric figure in nM, leaving out any unit text.

For record C[N+]1(C)CCC(c2ccc(-c3cccc(S(N)(=O)=O)c3-c3nnn[nH]3)cc2)CC1.O=C([O-])C(F)(F)F [Example 33, 2,2,2-trifluoroacetate] the listed IC50 is 16.6

For record Cn1nnc2ccc(-c3cccc(S(N)(=O)=O)c3-c3nn[nH]n3)cc21 the listed IC50 is 2.16

For record NS(=O)(=O)c1cccc(-c2ccc3[nH]nnc3c2)c1-c1nn[nH]n1 the listed IC50 is 26.4

For record NS(=O)(=O)c1c(C(F)(F)F)ccc(-c2ccc(C3CCN(CCC4CCNCC4)CC3)cc2)c1-c1nnn[nH]1 the listed IC50 is 7

For record Nc1nccc2cc(-c3ccc(C(F)(F)F)c(S(N)(=O)=O)c3-c3nnn[nH]3)ccc12 the listed IC50 is 0.962

For record NS(=O)(=O)c1c(C(F)(F)F)ccc(-c2ccc(C3CCN(C4CNC4)CC3)cc2)c1-c1nnn[nH]1 the listed IC50 is 2.06

For record NS(=O)(=O)c1nccc(-c2ccc3cccnc3c2)c1-c1nn[nH]n1 the listed IC50 is 51

----------
assay-target: VIM-1 (Pseudomonas aeruginosa (strain ATCC 15692 / DSM 22644 / CIP 104116 / JCM 14847 / LMG 12228 / 1C / PRS 101 / PAO1))
experiment-description: Enzyme activity: determination of IC50, fluorescence assay with CCF2-FA substrate (VIM-1)
Format: biochemical
measurement-setup: VIM-1 enzyme, CCF2-FA fluorescence assay; read-out: VIM-1 IC50
recorded-endpoint: IC50 (nM)
Supply the numeric figure in nM, leaving out any unit text.

For record NS(=O)(=O)c1cccc(-c2cnc3[nH]ccc3c2)c1-c1nn[nH]n1 the listed IC50 is 6.5

For record NC(=O)Cc1ccc(-c2cccc(S(N)(=O)=O)c2-c2nnn[nH]2)cc1 the listed IC50 is 44.6

For record CN1CCC(NCc2ccc(-c3cccc(S(N)(=O)=O)c3-c3nnn[nH]3)cc2)C1 (centres unmarked) the listed IC50 is 554

For record NS(=O)(=O)c1c(CC2CCNCC2(F)F)ccc(-c2ccc(C3CCNCC3)cc2)c1-c1nn[nH]n1 (centres unmarked) the listed IC50 is 1.64

For record CN(CC(=O)O)Cc1ccc(-c2cccc(S(N)(=O)=O)c2-c2nnn[nH]2)cc1 the listed IC50 is 212

For record Cc1cc(CNCc2ccc(-c3cccc(S(N)(=O)=O)c3-c3nnn[nH]3)cc2)n[nH]1 the listed IC50 is 325

For record NS(=O)(=O)c1nncc(-c2ccc(Br)cc2)c1-c1nn[nH]n1 the listed IC50 is 1230

For record NS(=O)(=O)c1cccc(-c2ccc(CNCCO)cc2)c1-c1nnn[nH]1 the listed IC50 is 222

----------
assay-target: IMP-1 (Serratia marcescens)
Sequence (P52699 whole entry, looked up): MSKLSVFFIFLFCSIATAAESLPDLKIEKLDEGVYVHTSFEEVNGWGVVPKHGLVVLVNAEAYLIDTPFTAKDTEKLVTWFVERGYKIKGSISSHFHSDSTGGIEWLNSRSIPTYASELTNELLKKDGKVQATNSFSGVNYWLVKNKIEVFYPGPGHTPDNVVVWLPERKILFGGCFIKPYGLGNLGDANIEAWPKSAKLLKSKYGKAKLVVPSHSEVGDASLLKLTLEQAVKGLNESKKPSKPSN
experiment-description: biochemical
Type: biochemical
measurement-setup: fluorescence assay with CCF2-FA substrate; read-out: IMP-1 IC50
recorded-endpoint: pIC50
Please treat pIC50 as minus the base-10 logarithm of the molar concentration.

For record CN(C)CCCOc1ccc(-c2cccc(S(N)(=O)=O)c2-c2nn[nH]n2)cn1 the listed pIC50 is 5.78

For record NS(=O)(=O)c1nccc(-c2ccc(C(=O)O)cc2)c1-c1nnn[nH]1 the listed pIC50 is 6.47

For record CN(C)c1ccc(-c2ccnc(S(N)(=O)=O)c2-c2nn[nH]n2)cn1 the listed pIC50 is 6.27

For record Nc1nccc(-c2cccc(-c3ccc(C(F)(F)F)c(S(N)(=O)=O)c3-c3nnn[nH]3)c2)n1 the listed pIC50 is 8.69

For record CN1CCC=C(c2cccc(S(N)(=O)=O)c2-c2nn[nH]n2)C1 the listed pIC50 is 4.70

For record N#CC1CC=C(c2cccc(S(N)(=O)=O)c2-c2nn[nH]n2)CC1 (centres unmarked) the listed pIC50 is 6.61

For record NS(=O)(=O)c1cccc(-c2cnn3ccccc23)c1-c1nn[nH]n1 the listed pIC50 is 6.49

For record Cn1cncc1C1CCN(c2ccnc(S(N)(=O)=O)c2-c2nnn[nH]2)CC1 the listed pIC50 is 6.10
